Numbers sourced from the supplement of paper PMC6470124.

PROTOCOL DESCRIPTION: absolute recovery over vacuum-assisted evaporative concentration; higher = better recovery
RUN PARAMETERS: wastewater influent; enrichment method: VEC
Assignment: determine reported absolute recovery for the given compounds.
One number for each entry, in %.

For each of the compounds below, state absolute recovery.
1. CC(C)N(C(=O)C(=O)[O-])c1ccccc1
2. Clc1ccc(C(c2ccccc2)N2CC[NH2+]CC2)cc1 (stereo not given) [1-[(4-Chlorophenyl)phenylmethyl]piperazine]
3. CCOC(=O)C1(c2ccccc2)CC[NH+](C)CC1
4. CC(C)[NH2+]CC(O)COc1cccc2ccccc12 (stereo not given)
5. CC1COC(=O)c2cc3c(cc21)C(C)(C)C(C)C3(C)C (stereo not given)

100
116
103
100
63.2
